# Test system: UCD52 (cells of a triple-negative basal-like breast cancer xenograft);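 note: PDX cells carrying CMV promoter-driven luciferase, viability read as total photon flux per second by IVIS imaging following D-luciferin, vehicle control 0.1% DMSO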
# protocol.description: cell viability (% of vehicle); higher = less cytotoxic
# test.parameters: 10 µM; 72 h
recorded.metric: cell viability
Number only, no unit.

query: Respond only with cell viability recorded for CC1CCOC2Cn3cc(C(=O)NCc4ccc(F)cc4F)c(=O)c(O)c3C(=O)N12 (configuration not stated)
result: 139

query: Respond only with cell viability recorded for CN(C)CCOC(C)(c1ccccc1)c1ccccn1.O=C(O)CCC(=O)O (configuration not stated) [Doxylamine Succinate]
result: 94.3

query: Respond only with cell viability recorded for O=C(O)/C=C/c1ccc(O)c(O)c1
result: 97.2

query: Respond only with cell viability recorded for CCCC(NC(=O)C1C2CCCC2CN1C(=O)C(NC(=O)C(NC(=O)c1cnccn1)C1CCCCC1)C(C)(C)C)C(=O)C(=O)NC1CC1 (configuration not stated)
result: 123

query: Respond only with cell viability recorded for Cl.OC(CNCC(O)C1CCc2cc(F)ccc2O1)C1CCc2cc(F)ccc2O1 (configuration not stated)
result: 38.4

query: Respond only with cell viability recorded for CCOc1ccc(NC(C)=O)cc1
result: 82

query: Respond only with cell viability recorded for CO[C@H]1/C=C/O[C@@]2(C)Oc3c(C)c(O)c4c(O)c(c5c(nc6cc(C)ccn65)c4c3C2=O)NC(=O)/C(C)=C\C=C\[C@H](C)[C@H](O)[C@@H](C)[C@H](O)[C@@H](C)[C@H](OC(C)=O)[C@@H]1C
result: 91.9
